Experimental system: Solute carrier family 2, facilitated glucose transporter member 1 (Homo sapiens)
Protocol notes: ST_JUDE_LEISH: Cytotoxicity at 2uM final concentration against transgenic Leishmania Mexicana promastigotes LmGLUT1 that are glucose transport deficient and complemented with the human glucose transporter GLUT1. Activity is measured by DNA content using SYBR green in vitro
Type: functional
Use YES when the recorded inhibition is no lower than 3%; use NO when it is lower.

Compound | Group label
O=C(Nc1cccc(-c2ccc(-c3nc4cc(F)ccc4[nH]3)cc2)c1)c1ccncc1 | YES
CN(C)CCNC(=O)NC1CN(c2ncnc3cc(-c4ccccc4)sc23)C1 | YES
c1cc(-c2ccc(CNC3CC3)cc2)cc(-c2nc3ccccc3[nH]2)c1 | YES
O=C(Nc1ccc2c(c1)CCN2C1CCN(Cc2cc(F)cc(F)c2F)C1)c1ccco1 (stereo not drawn) | NO
CO/C(=C\C=C\c1cc2cc(Cl)c(Cl)cc2[nH]1)C(=O)NCCCN1CCC(c2ccccc2)CC1 | NO
CN(C)c1ccc(-c2csc(C(=O)NC3CCCCN(CCC(C)(C)C)C3)c2)cc1 (stereo not drawn) | NO
O=C(Cc1c[nH]cn1)Nc1cccc(-c2ccc(-c3nc4cc(C(F)(F)F)ccc4[nH]3)cc2)c1 | YES
Cc1ccc(NC(=O)Nc2ccccc2)cc1-c1ccc(C(=O)Nc2ccncc2)cc1 | YES

----------
Collected inhibition values appear next to each entry.
Experimental system: Hexose transporter 1 (Plasmodium falciparum) (UniProt O97467)
Protocol notes: ST_JUDE_LEISH: Cytotoxicity at 2uM final concentration against transgenic Leishmania Mexicana promastigotes LmPfHT that are glucose transport deficient and complemented with the Plasmodium falciparum hexose transporter. Activity is measured by DNA content using SYBR green in vitro
Format: functional
Assay metric: inhibition

Molecule | Observed measurement
OC(CN(Cc1ccccc1)Cc1ccccc1)Cn1c2ccc(Cl)cc2c2cc(Cl)ccc21 (stereo unspecified) | 0.27%
CCOC(=O)c1ccc(OCCCCCCOc2ccc(Br)cc2)cc1 | 4.52%
O=C(N[C@@H](CC1CCCCC1)C(=O)NCCN1CCCCC1)c1ccc(O)c(-c2ccc(Cl)c(Cl)c2)c1 | 1.44%
NC(=O)c1ccccc1OCC(=O)Nc1cccc(-c2ccc(-c3nc4cc(C(F)(F)F)ccc4[nH]3)cc2)c1 | 3.99%
O=C(CSc1nnc(-c2ccccc2Br)[nH]1)c1c[nH]c2ccccc12 | -0.7%
CC(C)(C)Oc1ccc(NC(=O)c2ccccc2O)cc1 | 5.36%
CCCN(Cc1nnc(-c2ccco2)o1)C(=O)C1CCN(c2ncc(C(F)(F)F)cc2Cl)CC1 | 10.2%
Cc1cccc2nc(-c3ccc(-c4cccc(CN5CCN(CCO)CC5)c4)cc3)[nH]c12 | 4.65%
N=C(N)c1ccc(C=Cc2ccc(C(=N)N)cc2O)cc1 | -0.04%
Nc1nc(N)c2c(ccc3c2ccn3C2C=CCCC2)n1 (stereo unspecified) | 71.8%
c1cn(-c2ccc(CNc3nccc(Nc4ccc(OCCN5CCOCC5)cc4)n3)cc2)cn1 | -0.43%
O=C(Nc1ccc(N2CCNCC2)nc1)c1oc(-c2ccccc2)nc1C(F)(F)F | 3.6%
CN(C)CCOc1cc(NC(=O)Nc2ccc(Cl)cc2C(F)(F)F)ccc1I | 1.15%
CN1CCN(CC(=O)Nc2cccc(-c3cccc(-c4nc5cc(C(F)(F)F)ccc5[nH]4)c3)c2)CC1 | 2.92%
N=C(N)c1cc(Br)cc(NC(=O)Nc2cc(Br)cc(C(=N)N)c2)c1 | 2.44%
Cc1cc(CN2C(=O)C(c3ccccc3)(c3ccccc3)N=C2N)c(C(F)(F)F)o1 | 9.85%
O=C(Nc1ccc([N+](=O)[O-])cc1)Nc1nc2ccc(Cl)cc2s1 | 4.52%
CC(C)CCNC(=N)Nc1ccc(OCCCCCOc2ccc(NC(=N)NCCC(C)C)cc2)cc1 | 3.87%
O=C(Nc1ccc(Cl)cc1)c1ccc(S(=O)(=O)NCC2CCN(CC3CCCCC3)CC2)cc1 | 1.04%
Cc1cccc(-c2ccc(NC(=O)C3CCN(Cc4cccc(O)c4)CC3)cc2)c1 | 1.99%
Cc1cccc2nc(C3CCN(CC4CCN(C(=O)/C=C/c5ccc(Cl)c(Cl)c5)CC4)CC3)[nH]c12 | 11.5%
Fc1cccc(C=NN=c2cc[nH]c3ccccc23)c1 | 6.41%
Cc1cc(F)ccc1Nc1nc(N(C)c2ccccc2)c2cc(OCCCN(C)C)ccc2n1 | 3.15%
Cc1cc(C)c(O)c(-c2cc(C(=O)Nc3ccc(S(=O)(=O)N4CC(C)OC(C)C4)cc3)[nH]n2)c1 (stereo unspecified) | 1.95%
COc1cc(Nc2nc(N)n(C(=O)c3ccc4c(c3)OCO4)n2)cc(OC)c1OC | 9.11%
NC(=O)c1cccc(C(=O)Nc2cccc(-c3cccc(-c4nc5cc(C(F)(F)F)ccc5[nH]4)c3)c2)c1 | 0.13%
Cc1cccc(Nc2nccc(NCC(O)c3cccc(C(F)(F)F)c3)n2)c1 (stereo unspecified) | 7.59%
COc1c(CNCCCCCCNCc2cc(Cl)c3ccccc3c2OC)cc(Cl)c2ccccc12 | 7.04%
CC(C)N(Cc1ccc(-c2ccc(C(F)(F)F)cc2)cc1)C(=O)Cn1c(CCc2cccc(F)c2F)cc(=O)c2ccc(CCCN3CCCCC3)cc21 | 4.4%
COc1ccc(Cn2c(Nc3cccc(C(F)(F)F)c3)nc3cc(C(=O)NCCN4CCCC4)ccc32)cc1Cl | -0.47%
Fc1ccc2c(NN=Cc3ccc(Cl)cc3)ccnc2c1 | 10.9%
